# Assayed System: T1, human GPRC5D (G protein-coupled receptor class C group 5 member D), on cells (human, UniProt Q9NZD1 1-345)
# T1 construct: whole, on cells; also called hGPRC5D
# T1 sequence (Q9NZD1 whole entry): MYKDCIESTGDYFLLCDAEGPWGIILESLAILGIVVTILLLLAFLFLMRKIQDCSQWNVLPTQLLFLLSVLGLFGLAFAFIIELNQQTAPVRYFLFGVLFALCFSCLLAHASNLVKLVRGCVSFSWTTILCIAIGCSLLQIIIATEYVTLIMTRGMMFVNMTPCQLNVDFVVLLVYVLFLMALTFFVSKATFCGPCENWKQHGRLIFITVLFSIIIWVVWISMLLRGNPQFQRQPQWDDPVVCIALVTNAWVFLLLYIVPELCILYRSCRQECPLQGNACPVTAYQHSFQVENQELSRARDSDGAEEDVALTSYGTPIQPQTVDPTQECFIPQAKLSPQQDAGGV
# Experimental Protocol: FACS on MOLP8 multiple myeloma cells
# Description: 100 μl of FACS buffer was then added to each FACS tube for resuspension. 5 μl of PE-labeled, anti-murine Fc tagged secondary antibody (Biolegend, catalog number 409304) was added according to instructions, and incubated at 4° C. in the dark for 30 mins. Then 1 ml of FACS buffer was added, and centrifuged at 1200 rpm at room temperature for 5 mins. The supernatant was discarded followed by washing three times. […]
Property Measured: MFI.Max (MFI)
Quick reminder: number only, in MFI, skip the unit.

binder="humanized antibody 26D1 (hz) (antibody, V domains shown) VH: QVQLVQSGAEVKKPGASVKVSCKASGYTFTSYTIQWIKQAPGQGLEWIGYIIPSSGYTNYNQKFKDKATLTADKSSNTAYMELSSLTSEDTAVYYCANNYGNWGFTYWGQGTTVTVSS VL: DIQMTQSPSTLSASVGDRVTITCKASQNVGSAVTWYQQKPGKAPRLLIYSASNRYTGVPDRFSGSGSGTEFTLTISSLQPDDFATYFCQQYSNYPLTFGQGTRLEIKR" property_measured=MFI.Max measured=78

query: Return reported MFI.Max; argument: humanized antibody 6E97 (hz) (antibody, V domains shown) VH: QVQLVQSGAEVKKPGASVKVSCKASGYTFPYYVIHWVRQAPGQGLEWIGYINPYNAGTKYNEKFKGRATLTSDKSTSTAYMELSSLRSEDTAVYYCARGGVRRYFDYWGQGTTVTVSS VL: DIQLTQSPSTLSASVGDRVTITCRASQDIGSNLNWLQQKPGGTIKRLISATSSLDSGVPSRFSGSRSGSEYTLTISSLQPDDFATYYCLQYATFPYTFGQGTRLEIKR
result: 144

query: Return reported MFI.Max; argument: humanized antibody 24F5 (hz) (antibody, V domains shown) VH: QVQLVQSGAEVKKPGASVKVSCKASGYTFPYYVMHWVRQAPGQGLEWIGYINPYNDGTKYNEKFKGRATLTSDKSTSTAYMELSSLRSEDTAVYYCARGGVRRYFDYWGQGTTVTVSS VL: DIQMTQSPSTLSASVGDRVTITCRASQDIGSNLNWLQQKPGGTIKRLIYATSSLDSGVPSRFSGSRSGSEYTLTISSLQPDDFATYYCLQYATFPYTFGQGTRLEIKR
result: 133

query: Return reported MFI.Max; argument: humanized antibody 9D7 (hz) (antibody, V domains shown) VH: QVQLQESGPGLVKPSETLSLTCTVSGYSITSDYAWNWIRQPPGKGLEWMGYISYSGSATYSPSLKSRITISRDTSKNQFSLKLSSVTAADTAVYYCARGGIAGRGRWGAMDYWGQGTTVTVSS VL: DIQMTQSPSSLSASVGDRVTITCKASQNVGTNVAWYQQKPGQSPKALIYSASYRDSGVPDRFSGSGSGTDFTLTISSLQPEDFATYYCQQYKSYPLTFGQGTRLEIKR
result: 128
